# Tested on: RAW-Dual (murine macrophage reporter line)
# Assay Method Text: NF-kB reporter (SEAP) activity fold change vs agonist alone; higher = enhanced NF-kB activity
# Reported Conditions: modulator concentration 10 µM; agonist: MPLA […]
Could you please report measured NF-kB reporter for the items listed next?
Just the number.

Ask: Requested read-out: NF-kB reporter. Entry: C#Cc1cccc(Nc2ncnc3cc(OCCOC)c(OCCOC)cc23)c1
Reply: 0.945

Ask: Request the reported NF-kB reporter associated with Cn1c(=O)cc(N2CCC[C@@H](N)C2)n(Cc2cc(F)ccc2C#N)c1=O
Reply: 1.02

Ask: What value of NF-kB reporter has been recorded for this entry: CNC(CC(=O)O)C(=O)O (configuration not stated)
Reply: 0.978

Ask: Find the recorded NF-kB reporter belonging to CCN(CC)c1ccc(C=Nc2c(C)cc(C)cc2C)cc1 and report it.
Reply: 0.959

Ask: Fill in: NF-kB reporter of COc1ccccc1N1CCN(CCCNc2cc(=O)n(C)c(=O)n2C)CC1.Cl is ___
Reply: 0.954

Ask: Requested field: NF-kB reporter. Item: COc1ccc(CNC23CC4CC(CC(C4)C2)C3)cc1OC
Reply: 0.891

Ask: Record request: NF-kB reporter value, item O=C1c2ccccc2C(=O)C1c1ccccc1
Reply: 1.32

Ask: Using the record for COc1ccc(CNCc2cccc3ccccc23)cc1OC , report its NF-kB reporter.
Reply: 0.966

Ask: What does the data say about its NF-kB reporter? Entry: CSc1nc2cccc(F)c2c(=O)n1C1CC1
Reply: 1.18

Ask: // returns reported NF-kB reporter for input CS(=O)(=O)C1CCN(C(=O)C2(c3ccccc3)CCOCC2)C1 (configuration not stated)
Reply: 0.927

Ask: Need NF-kB reporter of CC1CCN(c2ccc(-c3ccc(NC(=O)c4ccc5ncsc5c4)cc3)nn2)CC1 , thanks.
Reply: 1.02

Ask: Param item = CN(C)CCCN1c2ccccc2CCc2ccc(Cl)cc21.Cl ; retrieve measured NF-kB reporter.
Reply: 1.64

Taken from the supplement of paper PMC10646978.
